# targetUnderTest: S. aureus alpha-toxin (Staphylococcus aureus, UniProt P09616)
# Sequence (P09616 27-319 limits assumed): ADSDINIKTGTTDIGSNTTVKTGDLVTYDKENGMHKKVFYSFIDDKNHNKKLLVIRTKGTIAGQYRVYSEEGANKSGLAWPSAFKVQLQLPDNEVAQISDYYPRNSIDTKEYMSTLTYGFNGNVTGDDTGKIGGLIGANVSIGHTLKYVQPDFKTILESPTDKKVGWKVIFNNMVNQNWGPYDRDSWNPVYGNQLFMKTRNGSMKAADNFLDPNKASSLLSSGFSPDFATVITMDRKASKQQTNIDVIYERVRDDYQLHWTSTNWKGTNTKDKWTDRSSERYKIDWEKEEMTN
pKd: −log10 of the molar value.
propertyName: pKd

# binder, propertyName, reportedMeasurement
records = [
    ("DF1.1 variant HCDR3-P12A/LCDR3-Y3A (antibody, V domains shown) VH: QVQLVQSGAEVKKPGSSVKVSCKTSGGTFNNVAINWVRQAPGQGLEWMGGIIPGLDTPNYAQKFQGRVTITADKSTTSTYLELSSLRSDDTAVYYCAREMEVSGRWRATEAFEIWGQGTMVTVSS VL: ETTLTQSPGTLSLSPGERATLSCRASQTISNNFVAWYQQKPGQAPRLLIYGASTRATGIPDRFSGSGSGTDFTLTISSLEPEDFAVYYCQQAGSSPYTFGQGTKVDIK", "pKd", 6.72),
    ("DF1.1 variant HCDR3-P12A/LCDR3-S6R (antibody, V domains shown) VH: QVQLVQSGAEVKKPGSSVKVSCKTSGGTFNNVAINWVRQAPGQGLEWMGGIIPGLDTPNYAQKFQGRVTITADKSTTSTYLELSSLRSDDTAVYYCAREMEVSGRWRATEAFEIWGQGTMVTVSS VL: ETTLTQSPGTLSLSPGERATLSCRASQTISNNFVAWYQQKPGQAPRLLIYGASTRATGIPDRFSGSGSGTDFTLTISSLEPEDFAVYYCQQYGSRPYTFGQGTKVDIK", "pKd", 6.48),
    ("DF1.1 variant HCDR3-W10A/LCDR3-Y3A (antibody, V domains shown) VH: QVQLVQSGAEVKKPGSSVKVSCKTSGGTFNNVAINWVRQAPGQGLEWMGGIIPGLDTPNYAQKFQGRVTITADKSTTSTYLELSSLRSDDTAVYYCAREMEVSGRARPTEAFEIWGQGTMVTVSS VL: ETTLTQSPGTLSLSPGERATLSCRASQTISNNFVAWYQQKPGQAPRLLIYGASTRATGIPDRFSGSGSGTDFTLTISSLEPEDFAVYYCQQAGSSPYTFGQGTKVDIK", "pKd", 6.36),
]
